Subject of test: T1, human CD22-ECD-His protein (human, UniProt P20273 20-687)
T1 construct: Recombinant, from HEK293E cells; also called hCD22-ECD-His; human CD22-His protein; not shown: His tag
T1 sequence: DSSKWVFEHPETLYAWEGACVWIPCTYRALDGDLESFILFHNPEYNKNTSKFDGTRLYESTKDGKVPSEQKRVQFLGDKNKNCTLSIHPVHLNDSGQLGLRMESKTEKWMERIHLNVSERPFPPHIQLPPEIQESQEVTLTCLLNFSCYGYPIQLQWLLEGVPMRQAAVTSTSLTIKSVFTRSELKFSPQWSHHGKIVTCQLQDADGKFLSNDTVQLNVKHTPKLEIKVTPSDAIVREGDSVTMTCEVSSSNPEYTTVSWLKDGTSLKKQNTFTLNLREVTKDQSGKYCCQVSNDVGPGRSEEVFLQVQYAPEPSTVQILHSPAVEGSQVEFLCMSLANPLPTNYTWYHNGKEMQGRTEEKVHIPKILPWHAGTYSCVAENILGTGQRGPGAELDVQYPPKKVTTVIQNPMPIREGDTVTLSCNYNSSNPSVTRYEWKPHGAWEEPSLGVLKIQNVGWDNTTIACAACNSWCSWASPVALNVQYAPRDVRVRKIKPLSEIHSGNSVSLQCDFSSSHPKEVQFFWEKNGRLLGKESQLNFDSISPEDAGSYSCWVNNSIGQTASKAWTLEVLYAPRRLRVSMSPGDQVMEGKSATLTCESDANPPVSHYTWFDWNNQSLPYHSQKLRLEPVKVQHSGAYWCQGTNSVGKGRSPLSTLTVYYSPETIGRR
Method: SPR (Biacore), antibody captured on Protein A chip, CD22-ECD-His in solution
Readout name: pKd
pKd field: float, defined as -log10 of concentration (mol/L).

Fill in the blank: the reported pKd of F1.200.11 (antibody, human IgG1, kappa, V domains shown, Chimeric IgG1 kappa) VH: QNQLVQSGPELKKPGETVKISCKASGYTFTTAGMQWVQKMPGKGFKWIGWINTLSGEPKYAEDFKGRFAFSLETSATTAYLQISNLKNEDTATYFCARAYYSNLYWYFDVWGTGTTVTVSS VL: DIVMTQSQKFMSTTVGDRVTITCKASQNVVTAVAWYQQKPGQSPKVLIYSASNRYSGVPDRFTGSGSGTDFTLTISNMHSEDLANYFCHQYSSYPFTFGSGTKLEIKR is ____. 6.99

Fill in the blank: the reported pKd of HA22-hIgG1 (antibody, V domains shown) VH: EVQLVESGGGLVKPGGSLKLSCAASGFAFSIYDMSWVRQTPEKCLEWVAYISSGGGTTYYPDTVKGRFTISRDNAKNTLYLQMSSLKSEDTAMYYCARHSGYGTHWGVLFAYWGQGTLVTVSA VL: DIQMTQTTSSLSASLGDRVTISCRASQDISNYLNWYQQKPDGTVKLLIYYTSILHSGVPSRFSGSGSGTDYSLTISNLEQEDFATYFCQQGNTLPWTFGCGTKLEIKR is ____. 8.88
